System: Plasmodium falciparum
Assay: Antimalarial activity against chloroquine-resistant Plasmodium falciparum W2 after 72 hrs by parasite LDH assay
Format: functional, organism-based
Details: W2, 72 h
Could you please mark condition met for values of IC50 below 4 µM and condition not met for values at or above it?

Below are worked cases with known answers.
CC/C=C/[C@H](CC)C[C@@]1(C)C[C@@H](CC)[C@@H](CC(=O)OC)OO1 [PLAKORTIN] = condition met
COC(=O)C[C@@H]1OO[C@@](CCC[C@H](O)/C=C(\C)[C@H](C)O)(OC)C[C@@H]1C [MANADOPEROXIDE D] = condition not met

Is 4 µM strictly greater than the molecule's reported IC50? molecule: CC/C=C(C)/C=C/CCC[C@]1(OC)C[C@H](C)[C@H](CC(=O)OC)OO1 [MANADOPEROXIDE B]
condition met

# strict comparison: is reported IC50 < 4 µM? input = C/C=C(C)/C=C/CCC[C@]1(OC)C[C@H](C)[C@H](CC(=O)OC)OO1 [MANADOPEROXIDE A]
condition met

Problem: For the molecule COC(=O)C[C@@H]1OO[C@@](CCC/C=C/C(C)=O)(OC)C[C@@H]1C [MANADOPEROXIDE C] , is IC50 under 4 µM?
condition met
